biological target: T1, Anti-CD28 Fab (SEQ ID NOs: 202, 203); assay: phage ELISA on captured Fab, wells pre-incubated with CD28 antigen (competitor: CD28);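 note: bound clonal phage detected with an HRP-linked anti-M13 antibody, compared against wells that received blocking buffer alone without CD28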
T1 construct: biotinylated and captured on neutravidin coated plates in the phage ELISA
T1 sequence (VH, as listed by the source, chain 1 of 2): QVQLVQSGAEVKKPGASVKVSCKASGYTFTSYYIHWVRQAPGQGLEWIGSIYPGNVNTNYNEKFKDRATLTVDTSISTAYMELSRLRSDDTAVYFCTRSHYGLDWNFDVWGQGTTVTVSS
T1 sequence (VL, as listed by the source, chain 2 of 2): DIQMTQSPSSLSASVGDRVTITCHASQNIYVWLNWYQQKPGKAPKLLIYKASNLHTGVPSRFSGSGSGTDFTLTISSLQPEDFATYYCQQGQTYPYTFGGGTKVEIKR
Listing of recorded Anti-CD28 Fab signal in the presence of CD28 by entry.
property: Anti-CD28 Fab signal in the presence of CD28

{"binder": "YCEGHLPQYIPKCL [Phage-193]", "result.number": 0.07}
{"binder": "YCAGHLPQYMEKCM [Phage-206]", "result.number": 0.08}
{"binder": "YCAGHLEIYMQKCL [Phage-211]", "result.number": 0.08}
{"binder": "YCDGHVPQYMAKCL [Phage-203]", "result.number": 0.07}
{"binder": "YCAGHLPEHIGKCL [Phage-207]", "result.number": 0.07}
{"binder": "YCDGHAQEFMSKCL [Phage-218]", "result.number": 0.12}
{"binder": "YCEGHSMEYMAKCL [Phage-295]", "result.number": 0.07}
{"binder": "YCDGHLPAYMAKCL [Phage-222]", "result.number": 0.12}
{"binder": "YCEGHLPMYFLKCM [Phage-270]", "result.number": 0.06}
{"binder": "YCEGHTAEYLQKCL [Phage-208]", "result.number": 0.1}
{"binder": "YCDGHSPEYMTKCL [Phage-294]", "result.number": 0.07}
{"binder": "YCAGHMPEYIDKCL [Phage-296]", "result.number": 0.06}
{"binder": "YCDGHLPEYLPKCL [Phage-153]", "result.number": 0.09}
{"binder": "YCEGHLAEYMDKCL [Phage-272]", "result.number": 0.07}
{"binder": "YCQGHMPEYMDKCL [Phage-231]", "result.number": 0.07}
{"binder": "YCDGHELRYMAKCL [Phage-221]", "result.number": 0.07}
{"binder": "YCLGHAPQYIQKCL [Phage-243]", "result.number": 0.14}
{"binder": "YCDGHSSEYMWKCL [Phage-244]", "result.number": 0.06}
{"binder": "YCDGHSAQYMHKCL [Phage-234]", "result.number": 0.06}
{"binder": "YCDGHSAEYMSKCL [Phage-204]", "result.number": 0.06}
{"binder": "YCDGHMPEYIAKCL [Phage-154]", "result.number": 0.08}
{"binder": "YCEGHLPIYMDKCL [Phage-228]", "result.number": 0.08}
{"binder": "YCDGHAPEYIYKCL [Phage-164]", "result.number": 0.06}
{"binder": "YCDGHAVEYMAKCL [Phage-161]", "result.number": 0.1}
{"binder": "YCEGHAPEHMAKCL [Phage-214]", "result.number": 0.1}
{"binder": "YCDGHKAEYMDKCL [Phage-150]", "result.number": 0.07}
{"binder": "YCDGHMPQYMSKCL [Phage-266]", "result.number": 0.08}
{"binder": "YCAGHTQEYMSKCL [Phage-201]", "result.number": 0.05}
{"binder": "YCDGHLPEYQMKCL [Phage-236]", "result.number": 0.08}
{"binder": "YCAGHLPEYMQKCL [Phage-182]", "result.number": 0.09}
{"binder": "YCDGHAPQYMGKCL [Phage-227]", "result.number": 0.08}
